# tgt: human alpha-synuclein (human, UniProt P37840 1-140)
# procedure_summary: SPR Biacore 3000, IgG captured by anti-human IgG on CM5 chip

- binder: "9C12 (antibody, V domains shown) VH: QVQLVQSGAEVKKPGASVKVSCKASGYTFTSYWMHWMRQAPGQGLEWIGRIDPNSGTTKYNVNIKTRATLTVDKSTSTAYMELSSLRSEDTAVYYCARLGHYGNLYAMDYWGQGTLVT VL: EIVLTQSPATLSLSPGERATLSCSASSSVSYMHWYQQKPGQAPRRLIYDTSKLASGVPARFSGSGSGTDYTLTISSLEPEDFAVYYCQQWSSNPPTFGQGTKLEIK"
  koff (s⁻¹): 0.000278
- binder: "8D9 (antibody, V domains shown) VH: QVQLVQSGAEVKKPGASVKVSCKASGYTFTSYWMHWMRQAPGQGLEWIGRIDPNSGTTKYNVNFKTRATLTVDKSTSTAYMELSSLRSEDTAVYYCARLGHYGNLYAKDYWGQGTLVT VL: EIVLTQSPATLSLSPGERATLSCSASSSVSYIHWYQQKPGQAPRRWIYDTSKLASGVPARFSGSGSGTDYTLTISSLEPEDFAVYYCQQWSSNPPTFGQGTKLEIK"
  koff (s⁻¹): 0.000483
- binder: "2E6-HLD-1 (antibody, V domains shown, Humanized 2E6 tested as IgG; also called Humanized HLD-1) VH: QVQLVQSGAEVKKPGASVKVSCKASGYTFTSYWMHWMRQAPGQGLEWIGRIDPNSGTTKYNVNFKTRATLTVDKSTSTAYMELSSLRSEDTAVYYCARLGHYGNLYAMDYWGQGTLVT VL: EIVLTQSPATLSLSPGERATLSCSASSSVSYMHWYQQKPGQAPRRWIYDTSKLASGVPARFSGSGSGTDYTLTISSLEPEDFAVYYCQQWSSNPPTFGQGTKLEIKR"
  koff (s⁻¹): 0.000944
